System: SNB-75 CNS
ASSAY_SUMMARY: NCI-60 one-dose screen, 48 h (100 = growth as untreated, 0 = no growth, -100 = all killed)
APPLIED_CONDITIONS: 10 µM
The panel holds about 83,000 compounds, 20% with a hit somewhere; the sample as a whole holds those more often.
EXPERIMENTAL_READOUT: growth (%)
Give your result in % as a bare value.

COMPOUND | growth (%)
CC1=C(N2CCOCC2)C(N2CCOCC2)=C(C)C(=O)C1=O | 97.4
COc1ccc(-c2nc3sc(-c4ccccc4)c(-c4ccccc4)n3c2/C=C/C(=O)c2ccccn2)cc1 | 29.1
O=C(Nc1ccncc1)C(=O)c1cn(S(=O)(=O)c2cccc3ccccc23)c2ccccc12 | 76.5
COc1cc(/C=C2\CCCC3=C2N=C2SC=NN2C3c2cc(OC)c(OC)c(OC)c2)cc(OC)c1OC (stereo not given) | 19.7

Could you now look at the following compound, please?
// fetch growth given entry Cc1ccc(NC(=O)NC2CCCCC2)cc1
107

* * *

This listing pairs compounds with measured growth.
Tested on: MCF7 breast
ASSAY_SUMMARY: NCI-60 one-dose screen, 48 h (100 = growth as untreated, 0 = no growth, -100 = all killed)
APPLIED_CONDITIONS: 10 µM
Compounds without any hit were thinned out: in the full panel of roughly 83,000, 20% have a hit.
Give your result in % as a bare value.

COMPOUND | growth [%]
CCN(CC)CCNc1ccc(CO)c2oc3cc(Cl)ccc3c(=O)c12 | 64.5
CCN1CCCC1CNC(=O)c1ncc(-c2ccc(C(F)(F)F)cc2)c(NC2CCCCCC2)n1 (centres undefined) | 43.6
NC(=S)N=Nc1c(O)c2ccccc2c2ccccc12 | 24.5
Cc1cc(O)c(C(C)(C)C)cc1Sc1cc(C(C)(C)C)c(O)cc1C | 34.7
COC(=O)C(=C\c1ccc2c(c1)OCO2)/C(=C/c1ccc2c(c1)OCO2)C(=O)OC | 96.9
O=C(Nc1cccc(-n2cc(-c3ccncc3)c(-c3ccc(O)c(Cl)c3)n2)c1)c1cc(C(F)(F)F)cc(C(F)(F)F)c1 | 27.3
O=C1NC(=O)c2ncccc21 | 95.5
CN1CCCNc2c(c(=O)c2=O)NCCCN(C)CCCNc2c(c(=O)c2=O)NCCCN(C)CCCNc2c(c(=O)c2=O)NCCCN(C)CCCNc2c(c(=O)c2=O)NCCCN(C)CCCNc2c(c(=O)c2=O)NCCCN(C)CCCNc2c(c(=O)c2=O)NCCCN(C)CCCNc2c(c(=O)c2=O)NCCC1 | 74.1

// fetch growth given entry NC1(C(=O)O)CSSC1
43.4

* * *

System: UACC-62 melanoma
ASSAY_SUMMARY: NCI-60 one-dose screen, 48 h (100 = growth as untreated, 0 = no growth, -100 = all killed)
APPLIED_CONDITIONS: 10 µM
This is part of a sample that, as a whole, favours compounds with a hit. Of some 83,000 tested, about 20% had one in any assay.
EXPERIMENTAL_READOUT: growth (%)
Give your result in % as a bare value.

Use these answered entries as a reference point.
COMPOUND | UNIT_SYMBOL | growth
Cc1cc(Cl)nc(N(CCCNc2ccnc3cc(Cl)ccc23)Cc2cccs2)n1 | % | 10
O=C(Nc1ccc(CO)cc1)c1ccccc1Nc1ccnc(C(F)(F)F)c1 | % | 95.4
COc1ccc(C2=Nc3c(C)nn(-c4ccccc4)c3NC(c3ccc(Oc4ccnc5cc(Cl)ccc45)c(OC)c3)C2)cc1 (stereo not given) | % | 75.9
CC1(C)Cc2c(sc3ncn4nc(-c5ccc(O)cc5)nc4c23)CO1 | % | 82.5
S=C1SCC(c2ccccc2)S1 (stereo not given) | % | 100

Could you now look at the following compound, please?
// fetch growth given entry O=C1/C(=C/c2ccc([N+](=O)[O-])s2)Oc2ccccc21
-80.4

* * *

Test system: SNB-75 CNS
ASSAY_SUMMARY: NCI-60 one-dose screen, 48 h (100 = growth as untreated, 0 = no growth, -100 = all killed)
APPLIED_CONDITIONS: 10 µM
This is part of a sample that, as a whole, favours compounds with a hit. Of some 83,000 tested, about 20% had one in any assay.
This listing pairs molecules with measured growth.
Give your result in % as a bare value.

Use these answered entries as a reference point.
MOLECULE | TARGET_ENTITY | growth (%)
Nc1c(C(=O)Nc2ccccc2)sc2nc3c(cc12)C(O)CCC3 (stereo not given) | SNB-75 CNS | 36.6
C#Cc1ccc(-n2c(/C=C/c3ccc(C(F)(F)F)cc3)nc3ncccc3c2=O)cc1 | SNB-75 CNS | 25.7

// fetch growth given entry c1ccc(CO[C@H]2CO[C@H]3[C@@H]2OC[C@H]3OCc2ccccc2)cc1
111

// fetch growth given entry O=C(/C(=C/c1ccccc1)CN1CCCCC1)c1ccccc1
30.6

* * *

Test system: CCRF-CEM leukemia
ASSAY_SUMMARY: NCI-60 one-dose screen, 48 h (100 = growth as untreated, 0 = no growth, -100 = all killed)
APPLIED_CONDITIONS: 10 µM
About 83,000 compounds went through this panel and 20% of them were active in at least one assay; those are over-represented in the sample as a whole.
This listing pairs compounds with measured growth.
Give your result in % as a bare value.

COMPOUND | TARGET_ENTITY | EXPERIMENTAL_READOUT | OBSERVED_MEASUREMENT
Cc1cc(N(CCCNc2ccnc3cc(Cl)ccc23)Cc2ccc3c(c2)OCO3)nc(N2CCOCC2)n1 | CCRF-CEM leukemia | growth | -8.38
Nc1c(C(=O)Nc2ccccc2)sc2nc3c(cc12)CCCC3 | CCRF-CEM leukemia | growth | 13.1
Nc1nc(-c2ccccc2Cl)cc(-c2ccc(Cl)cc2Cl)n1 | CCRF-CEM leukemia | growth | 57.5

// fetch growth given entry O=C(Nc1nc(-c2ccccc2Cl)cs1)c1cc(-c2ccc(Cl)cc2)nc2ccc(Cl)cc12
28.4

// fetch growth given entry N=C(N)c1ccc(-c2ccc(-c3ccco3)o2)cc1
60.7

// fetch growth given entry Cc1ccc(CC#N)cc1C
128

// fetch growth given entry CC(=O)c1nc2ccccc2n1CCNC(N)=O
68.3

// fetch growth given entry Nc1nc(N=Nc2ccc(O)cc2)cc(=O)[nH]1
97.5

// fetch growth given entry COc1ccc(-c2cc(-c3ccc(N(C)C)cc3)c(C#N)c(N3CCCC3)n2)cc1
79.5

// fetch growth given entry C[C@@H]1C=C2C(=O)O[C@@H]3CC[C@H](C1)[C@]23O
18.6

// fetch growth given entry S=c1[nH]ccn1-c1c(Cl)cccc1Cl
76.7

* * *

Tested on: 786-0 renal
ASSAY_SUMMARY: NCI-60 one-dose screen, 48 h
APPLIED_CONDITIONS: 10 µM
About 83,000 compounds went through this panel and 20% of them were active in at least one assay; those are over-represented in the sample as a whole. Active and inactive are the calls of the source. Rule for the calls: active = growth percent below 10; inactive = the rest.
Write down the outcome that applies. Available outcomes: active, inactive

See these solved cases before continuing.
COMPOUND | CLASS_LABEL
O=c1oc2cc(OS(=O)(=O)c3ccccc3)ccc2c2c1CCCCC2 | inactive
COc1cc(-c2nc(-c3nnc(-c4ccc(F)c(Cl)c4)o3)c3ccccn23)cc(OC)c1OC | inactive

Please state the recorded outcome for this compound: ClC(Cl)(Cl)c1nc2nccnc2[nH]1
inactive

Please state the recorded outcome for this compound: CN(C)c1ccc(Cc2ccc(N(C)C)cc2Cl)c(Cl)c1
inactive

Please state the recorded outcome for this compound: COc1ccc(-c2nc3ccccn3c2-c2nnc(-c3cc(OC)c(OC)c(OC)c3)o2)cc1
inactive

Please state the recorded outcome for this compound: O=C(Nc1cccc(-n2cc(-c3ccncc3)c(-c3ccc(O)c(Cl)c3)n2)c1)Nc1ccc(Cl)c(Cl)c1
active

Please state the recorded outcome for this compound: c1ccc([C@H]2CN3CCSC3=N2)cc1
inactive

Please state the recorded outcome for this compound: CCCN(CCC)CCC(O)c1cc2c(c3ccccc13)CCCC2 (stereo not given)
inactive

Please state the recorded outcome for this compound: COc1ccc2c(c1)N(CCO)C1=C(C(=O)OC1)C2c1ccc(OC)c(OC)c1 (stereo not given)
inactive

Please state the recorded outcome for this compound: COc1ccc2c(c1)O/C(=C\c1ccc([N+](=O)[O-])o1)C2=O
active

* * *

System: MDA-MB-435 melanoma
ASSAY_SUMMARY: NCI-60 one-dose screen, 48 h (100 = growth as untreated, 0 = no growth, -100 = all killed)
APPLIED_CONDITIONS: 10 µM
The panel holds about 83,000 compounds, 20% with a hit somewhere; the sample as a whole holds those more often.
Cut-off 80% on growth, inclusive. At or above means Fulfilled; below means Not fulfilled.

See these solved cases before continuing.
SMILES_STRING | CLASS_LABEL
COc1ccc2c(c1)C(=O)c1c-2c(OCCN2CCCCC2)nc2ccc(OC)cc12 | Not fulfilled
Cc1nc2c(c(=O)[nH]1)OCN(Cc1ccccc1)C2 | Fulfilled
N#Cc1cc(-c2cc3ccccc3o2)oc1N | Not fulfilled
C/C(N)=C(\C#N)C(=O)c1ccccc1 | Fulfilled
C(CCCC1=NCCO1)CCCC1=NCCO1 | Fulfilled
CC(=O)CSC(C)=O | Fulfilled

Threshold query (growth >= 80%) on O=C1/C(=C\c2ccc(Cl)cc2)CN(C(=S)Nc2ccccc2)C/C1=C\c1ccc(Cl)cc1
Not fulfilled

Threshold query (growth >= 80%) on O=C1Nc2ccccc2C1=NC1CCCCC1
Fulfilled

Threshold query (growth >= 80%) on COc1ccc(/C=C2/CN(C(=O)c3ccccc3F)C/C(=C\c3ccc(OC)cc3)C2=O)cc1
Not fulfilled

Threshold query (growth >= 80%) on C#Cc1ccc(-n2c(/C=C/c3ccc4ccccc4c3)nc3ncccc3c2=O)cc1
Not fulfilled

Threshold query (growth >= 80%) on O=C1Nc2ccc(Cl)cc2/C1=C\c1c(-c2ccc(Cl)cc2)nc2sc(C3CC3)nn12
Not fulfilled

Threshold query (growth >= 80%) on CN(C)N=Nc1nn(C(=O)Nc2ccc(Cc3ccccc3)cc2)c2ccccc12
Not fulfilled

Numbers sourced from PubChem BioAssay (NCI).
